target_or_test_system: Muscarinic acetylcholine receptor M4 (Rattus norvegicus, UniProt P08485)
Sequence (P08485 whole entry): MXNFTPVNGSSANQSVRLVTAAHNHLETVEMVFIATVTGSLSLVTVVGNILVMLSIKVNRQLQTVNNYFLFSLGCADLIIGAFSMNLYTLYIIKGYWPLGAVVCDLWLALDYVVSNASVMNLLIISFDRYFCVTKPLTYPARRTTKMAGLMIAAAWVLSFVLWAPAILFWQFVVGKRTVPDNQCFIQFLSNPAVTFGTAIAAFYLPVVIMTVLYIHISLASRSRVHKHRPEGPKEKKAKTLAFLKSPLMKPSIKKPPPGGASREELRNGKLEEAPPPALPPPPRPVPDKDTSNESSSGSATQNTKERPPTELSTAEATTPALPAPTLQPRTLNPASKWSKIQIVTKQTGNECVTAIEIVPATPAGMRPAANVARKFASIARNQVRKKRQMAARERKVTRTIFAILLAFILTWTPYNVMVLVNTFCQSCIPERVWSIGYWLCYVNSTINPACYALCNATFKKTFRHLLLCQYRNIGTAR
protocol: Positive allosteric modulation of rat muscarinic M4 receptor
pEC50: −log10 of the molar value.
measured_endpoint: pEC50

**Query** Form field: reported pEC50 of O=C1C(=O)N(CCOc2ccccc2)c2ccc(OC(F)(F)F)cc21
**Result** < 4.52

----------
target_or_test_system: Muscarinic acetylcholine receptor M2 (Homo sapiens)
Sequence (P08172 whole entry): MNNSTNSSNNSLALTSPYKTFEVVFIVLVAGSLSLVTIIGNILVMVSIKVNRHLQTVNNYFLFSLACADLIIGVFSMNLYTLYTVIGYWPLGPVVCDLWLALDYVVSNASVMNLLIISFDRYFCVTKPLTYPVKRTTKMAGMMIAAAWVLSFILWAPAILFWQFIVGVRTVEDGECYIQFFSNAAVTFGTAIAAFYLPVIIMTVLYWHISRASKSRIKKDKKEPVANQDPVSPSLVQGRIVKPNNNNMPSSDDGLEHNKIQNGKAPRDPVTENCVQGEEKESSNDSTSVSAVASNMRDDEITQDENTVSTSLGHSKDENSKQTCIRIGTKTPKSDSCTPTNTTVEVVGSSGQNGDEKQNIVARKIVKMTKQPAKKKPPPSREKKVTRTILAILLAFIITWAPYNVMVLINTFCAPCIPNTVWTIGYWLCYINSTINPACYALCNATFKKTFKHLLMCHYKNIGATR
protocol: Positive allosteric modulation of human muscarinic M2 receptor
pEC50: −log10 of the molar value.
measured_endpoint: pEC50

For every item in the list below, what is its measured pEC50?
1. O=C1C(=O)N(CCOc2ccccc2)c2ccc(OC(F)(F)F)cc21
2. COc1ccc(CN2C(=O)C(=O)c3cc(OC(F)(F)F)ccc32)cc1
3. O=C1C(=O)N(Cc2ccc(Oc3cccc(F)n3)cc2)c2ccc(OC(F)(F)F)cc21
4. Cn1cc(-c2ccc(CN3C(=O)C(=O)c4ccccc43)c(F)c2)cn1
5. O=C1C(=O)N(Cc2ccc(Oc3ccccc3)cc2)c2ccc(OC(F)(F)F)cc21

**Result**
1. < 4.52
2. < 4.52
3. < 4.52
4. < 4.52
5. < 4.52

----------
target_or_test_system: Muscarinic acetylcholine receptor M3 (Homo sapiens)
Sequence (P20309 whole entry): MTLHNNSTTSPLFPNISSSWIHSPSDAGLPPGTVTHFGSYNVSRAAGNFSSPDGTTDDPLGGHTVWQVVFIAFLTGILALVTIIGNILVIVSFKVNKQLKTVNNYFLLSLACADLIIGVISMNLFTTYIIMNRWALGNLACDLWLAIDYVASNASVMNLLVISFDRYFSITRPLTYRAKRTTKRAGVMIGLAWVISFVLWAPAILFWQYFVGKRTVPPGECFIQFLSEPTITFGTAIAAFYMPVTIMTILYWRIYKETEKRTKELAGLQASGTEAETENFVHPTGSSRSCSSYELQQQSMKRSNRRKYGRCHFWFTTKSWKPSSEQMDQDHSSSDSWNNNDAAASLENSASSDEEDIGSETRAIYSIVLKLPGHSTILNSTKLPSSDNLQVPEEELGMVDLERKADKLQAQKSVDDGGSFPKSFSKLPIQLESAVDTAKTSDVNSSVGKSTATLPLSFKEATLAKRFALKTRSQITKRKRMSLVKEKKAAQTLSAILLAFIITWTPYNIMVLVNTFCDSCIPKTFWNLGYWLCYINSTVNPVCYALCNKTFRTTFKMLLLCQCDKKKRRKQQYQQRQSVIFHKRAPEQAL
protocol: Positive allosteric modulation of human muscarinic M3 receptor
pEC50: −log10 of the molar value.
measured_endpoint: pEC50

Study these solved cases before continuing.
# smiles_data, pEC50
records = [
    ("O=C1C(=O)N(Cc2ccc(Oc3ccccc3)cc2)c2ccc(OC(F)(F)F)cc21", "< 4.52"),
    ("COc1ccc(CN2C(=O)C(=O)c3cc(OC(F)(F)F)ccc32)cc1", "< 4.52"),
    ("O=C1C(=O)N(CCOc2ccccc2)c2ccc(OC(F)(F)F)cc21", "< 4.52"),
    ("Cn1cc(-c2ccc(CN3C(=O)C(=O)c4ccccc43)c(F)c2)cn1", "< 4.52"),
]

The record that follows has no pEC50 shown yet.
**Query** Form field: reported pEC50 of O=C1C(=O)N(Cc2ccc(Oc3cccc(F)n3)cc2)c2ccc(OC(F)(F)F)cc21
**Result** < 4.52

----------
target_or_test_system: Muscarinic acetylcholine receptor M3 (Rattus norvegicus, UniProt P08483)
Sequence (P08483 whole entry): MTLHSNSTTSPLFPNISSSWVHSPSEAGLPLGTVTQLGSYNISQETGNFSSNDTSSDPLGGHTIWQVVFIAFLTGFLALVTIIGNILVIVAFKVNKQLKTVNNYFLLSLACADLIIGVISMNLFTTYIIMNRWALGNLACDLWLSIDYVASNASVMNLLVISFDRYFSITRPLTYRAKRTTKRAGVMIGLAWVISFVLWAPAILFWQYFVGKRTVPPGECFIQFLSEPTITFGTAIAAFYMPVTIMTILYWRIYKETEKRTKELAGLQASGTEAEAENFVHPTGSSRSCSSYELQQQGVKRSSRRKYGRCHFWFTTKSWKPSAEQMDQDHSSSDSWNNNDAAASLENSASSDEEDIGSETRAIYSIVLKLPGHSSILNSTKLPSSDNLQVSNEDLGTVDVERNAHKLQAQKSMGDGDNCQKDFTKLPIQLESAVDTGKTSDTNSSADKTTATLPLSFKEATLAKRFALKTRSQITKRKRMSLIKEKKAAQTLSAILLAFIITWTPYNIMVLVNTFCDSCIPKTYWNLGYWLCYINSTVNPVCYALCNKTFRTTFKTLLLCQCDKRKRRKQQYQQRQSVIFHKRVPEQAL
protocol: Positive allosteric modulation of rat muscarinic M3 receptor
measured_endpoint: EC50

**Query** Reported EC50 for Muscarinic acetylcholine receptor M3 (Rattus norvegicus, UniProt P08483), given O=C1C(=O)N(CCOc2ccccc2)c2ccc(OC(F)(F)F)cc21 ?
**Result** > 30 µM

----------
Give measured EC50 for each item. Keep answers brief.
target_or_test_system: Muscarinic acetylcholine receptor M4 (Homo sapiens, UniProt P08173)
Sequence (P08173 whole entry): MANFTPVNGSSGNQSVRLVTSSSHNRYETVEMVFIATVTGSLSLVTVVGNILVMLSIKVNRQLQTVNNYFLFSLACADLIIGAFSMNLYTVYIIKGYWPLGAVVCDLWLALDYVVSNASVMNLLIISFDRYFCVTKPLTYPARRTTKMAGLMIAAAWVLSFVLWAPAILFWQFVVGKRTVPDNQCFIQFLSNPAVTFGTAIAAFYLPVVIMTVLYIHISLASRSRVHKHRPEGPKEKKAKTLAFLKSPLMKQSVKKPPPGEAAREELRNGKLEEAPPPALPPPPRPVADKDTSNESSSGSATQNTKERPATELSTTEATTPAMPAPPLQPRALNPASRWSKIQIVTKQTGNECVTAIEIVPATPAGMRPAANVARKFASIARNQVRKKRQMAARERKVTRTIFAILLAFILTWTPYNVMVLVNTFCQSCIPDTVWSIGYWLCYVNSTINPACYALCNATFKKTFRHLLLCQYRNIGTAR
protocol: Positive allosteric modulation of human muscarinic M4 receptor

# smiles_data, EC50
rows = [
    ("COc1ccc(CN2C(=O)C(=O)c3cc(OC(F)(F)F)ccc32)cc1", "> 30 µM"),
    ("O=C1C(=O)N(CCOc2ccccc2)c2ccc(OC(F)(F)F)cc21", "> 30 µM"),
    ("Cn1cc(-c2ccc(CN3C(=O)C(=O)c4ccccc43)c(F)c2)cn1", "> 30 µM"),
    ("O=C1C(=O)N(Cc2ccc(Oc3cccc(F)n3)cc2)c2ccc(OC(F)(F)F)cc21", "> 30 µM"),
]

The record that follows has no EC50 shown yet.
**Query** Reported EC50 for Muscarinic acetylcholine receptor M4 (Homo sapiens, UniProt P08173), given O=C1C(=O)N(Cc2ccc(Oc3ccccc3)cc2)c2ccc(OC(F)(F)F)cc21 ?
**Result** > 30 µM

----------
target_or_test_system: Muscarinic acetylcholine receptor M5 (Homo sapiens) (UniProt P08912)
protocol: Positive allosteric modulation of human muscarinic M5 receptor relative to acetylcholine
Give measured Emax for each item. Keep answers brief.
Give bare numbers, in %.

# molecule, Emax, %
records = [
    ("COc1ccc(CN2C(=O)C(O)(C[N+](=O)[O-])c3cc(OC(F)(F)F)ccc32)cc1 (stereo not drawn)", 75),
    ("O=C1C(=O)N(CCOc2ccc(Oc3ccccc3)cc2)c2ccc(OC(F)(F)F)cc21", 93),
    ("COc1ccc(CN2C(=O)C(O)(c3ccc(F)nc3)c3cc(OC(F)(F)F)ccc32)cc1 (stereo not drawn)", 74),
    ("Cc1cccc(OCCN2C(=O)C(=O)c3cc(OC(F)(F)F)ccc32)c1", 91),
    ("O=C1C(=O)N(CCOc2ccc(Cl)cc2)c2ccc(OC(F)(F)F)cc21", 92),
    ("O=C1C(=O)N(CCOc2ccccc2)c2ccc(OC(F)(F)F)cc21", 91),
]

For every item in the list below, what is its measured Emax?
1. COc1ccc(OCCN2C(=O)C(=O)c3cc(OC(F)(F)F)ccc32)cc1
2. Cn1cc(-c2ccc(CN3C(=O)C(=O)c4ccccc43)c(F)c2)cn1

**Result**
[89, 45]

----------
target_or_test_system: Muscarinic acetylcholine receptor M5 (Homo sapiens, UniProt P08912)
protocol: Positive allosteric modulation of human muscarinic M5 receptor
Give measured EC50 for each item. Keep answers brief.
Give bare numbers, in nM.

# molecule, EC50 / nM
rows = [
    ("COc1ccc(CN2C(=O)C(O)(C[N+](=O)[O-])c3cc(OC(F)(F)F)ccc32)cc1 (configuration not stated)", 1400),
    ("O=C1C(=O)N(CCOc2ccc(Cl)cc2)c2ccc(OC(F)(F)F)cc21", 450),
    ("COc1ccc(OCCN2C(=O)C(=O)c3cc(OC(F)(F)F)ccc32)cc1", 590),
]

For every item in the list below, what is its measured EC50?
1. COc1ccc(CN2C(=O)C(O)(c3ccc(F)nc3)c3cc(OC(F)(F)F)ccc32)cc1 (configuration not stated)
2. O=C1C(=O)N(CCOc2ccccc2)c2ccc(OC(F)(F)F)cc21
3. O=C1C(=O)N(CCOc2ccc(Oc3ccccc3)cc2)c2ccc(OC(F)(F)F)cc21
4. Cc1cccc(OCCN2C(=O)C(=O)c3cc(OC(F)(F)F)ccc32)c1

**Result**
2200
410
1050
530

----------
target_or_test_system: Muscarinic acetylcholine receptor M5 (Homo sapiens)
Sequence (whole entry): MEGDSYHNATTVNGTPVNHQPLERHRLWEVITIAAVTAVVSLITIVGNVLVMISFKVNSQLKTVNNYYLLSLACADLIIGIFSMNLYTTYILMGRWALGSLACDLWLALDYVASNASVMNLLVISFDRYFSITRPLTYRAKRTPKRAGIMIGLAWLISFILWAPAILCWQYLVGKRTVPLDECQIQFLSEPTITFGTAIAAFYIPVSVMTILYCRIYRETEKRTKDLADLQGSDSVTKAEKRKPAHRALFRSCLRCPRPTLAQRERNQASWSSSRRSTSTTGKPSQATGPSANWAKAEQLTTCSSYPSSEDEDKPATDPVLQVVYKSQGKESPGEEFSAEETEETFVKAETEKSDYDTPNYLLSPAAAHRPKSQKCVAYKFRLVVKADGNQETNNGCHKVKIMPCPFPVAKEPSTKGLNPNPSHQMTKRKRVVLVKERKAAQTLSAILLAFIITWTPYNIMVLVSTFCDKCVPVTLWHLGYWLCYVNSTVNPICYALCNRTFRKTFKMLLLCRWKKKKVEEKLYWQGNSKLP
protocol: Positive allosteric modulation of human muscarinic M5 receptor assessed as fold shift of acetylcholine-induced response at 30 uM
measured_endpoint: fold change (FC)
Give bare numbers.

Study these solved cases before continuing.
# smiles_data, fold change (FC)
measured = [
    ("O=C1C(=O)N(CCOc2ccccc2)c2ccc(OC(F)(F)F)cc21", 20),
    ("COc1ccc(CN2C(=O)C(=O)c3cc(OC(F)(F)F)ccc32)cc1", 14),
    ("O=C1C(=O)N(Cc2ccc(Oc3cccc(F)n3)cc2)c2ccc(OC(F)(F)F)cc21", 6),
]

The record that follows has no fold change (FC) shown yet.
**Query** Form field: reported fold change (FC) of O=C1C(=O)N(Cc2ccc(Oc3ccccc3)cc2)c2ccc(OC(F)(F)F)cc21
**Result** 5
